Conditions: in isopropanol, 288.15 K
reported-property: solubility (mole fraction)
Numbers only.

-- ask Identify measured solubility (mole fraction) associated with CC(=O)O[C@]1(C(C)=O)CC[C@H]2[C@@H]3C[C@H](C)C4=CC(=O)CC[C@]4(C)[C@H]3CC[C@@]21C
-- reply 0.000754

* * *

Conditions: in isopropanol, 283.15 K
reported-property: solubility (mole fraction)
Answers are plain numbers.

-- ask Identify measured solubility (mole fraction) associated with CC(=O)O[C@]1(C(C)=O)CC[C@H]2[C@@H]3C[C@H](C)C4=CC(=O)CC[C@]4(C)[C@H]3CC[C@@]21C
-- reply 0.000651

* * *

Conditions: in n-butanol, 293.15 K
reported-property: solubility (mole fraction)
Give bare numbers.

-- ask Identify measured solubility (mole fraction) associated with CC(=O)O[C@]1(C(C)=O)CC[C@H]2[C@@H]3C[C@H](C)C4=CC(=O)CC[C@]4(C)[C@H]3CC[C@@]21C
-- reply 0.00168
